Assay: Solubility test, shake-flask in FaSSIF-V2
Format: physicochemical
Conditions: 25 °C, thermodynamic from solid; FaSSIF-V2, pH 6.5, 25±1° C.; calculated through the equilibrium concentrations in the eutectic point, taking into account stoichiometry; read-out: Log S (logarithm of S in mol/L) (converted)
experimental_endpoint: solubility at 24 h (µM)
# number only, unit µM dropped from output

Query: Respond only with solubility at 24 h recorded for CC[C@H](CC[C@@H](C)[C@H]1CC[C@H]2[C@@H]3CC=C4C[C@@H](O)CC[C@]4(C)[C@H]3CC[C@]12C)C(C)C [hydrate crystal form of beta-sitosterol, beta-sitosterol]
Result: 5.01

Data provenance is patent US11591363B2.
